Recorded measurements of inhibition at 2 µM, one per entry
Target: Lyn kinase (human) (Homo sapiens)
Construct: purchased Upstate Biotechnology, Lake Placid, N.Y
Sequence (P07948 whole entry): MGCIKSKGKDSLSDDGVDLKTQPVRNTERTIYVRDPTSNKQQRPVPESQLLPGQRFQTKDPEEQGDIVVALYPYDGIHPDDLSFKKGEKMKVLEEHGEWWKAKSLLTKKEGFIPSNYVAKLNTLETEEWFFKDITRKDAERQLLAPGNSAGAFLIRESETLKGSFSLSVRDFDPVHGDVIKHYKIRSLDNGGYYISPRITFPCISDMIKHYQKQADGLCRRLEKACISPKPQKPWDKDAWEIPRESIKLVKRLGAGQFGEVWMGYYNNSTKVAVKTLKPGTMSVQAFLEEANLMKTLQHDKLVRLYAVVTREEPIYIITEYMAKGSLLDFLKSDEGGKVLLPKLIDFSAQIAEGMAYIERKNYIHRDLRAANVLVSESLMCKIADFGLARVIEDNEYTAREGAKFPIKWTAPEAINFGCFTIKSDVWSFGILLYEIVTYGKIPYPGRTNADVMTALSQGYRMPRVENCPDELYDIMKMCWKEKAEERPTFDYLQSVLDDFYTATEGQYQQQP
Assay: Lyn Kinase Assay
Format: biochemical
Conditions: test concentration of 2 μM
Experimental: A mixture of a 10× kinase buffer (500 mM MOPS at pH 7.5, 1 mM EGTA, 1 mM Sodium Vanadate, 1% β-mercaptoethanol and 100 mM Magnesium Acetate), ATP (5 μM final from a 10 mM stock), polyGluTyr (0.1 mg/mL final from a 1 mg/mL stock), γ-^33P ATP (10 μCl/μL stock) and water (for a total of 20 μL/well) was added to each well of a Streptavidin Flashplate. Test compound in 100% DMSO (0.5 μL) was added to the appropriate wells. […]
Field format: number, assumed %, no unit text.

Record smiles: O=C(O)c1sc2ncnc3c2c1NC(=O)N3c1ccc(Oc2ccccc2)c(F)c1
Unit tag: %
Test value: 30
//
Record smiles: O=C(Nc1ccc(CCN2CCCCC2)cc1)c1sc2ncnc3c2c1NC(=O)N3c1ccc(Oc2ccccc2)c(F)c1
Unit tag: %
Test value: 40
//
Record smiles: CCOC(=O)c1sc2ncnc3c2c1NC(=O)N3c1ccc(Oc2ccc(F)cc2)cc1
Unit tag: %
Test value: 3
//
Record smiles: COc1cc(NC(=O)c2sc3ncnc4c3c2NC(=O)N4c2ccc(F)cc2Cl)ccc1OCCN1CCCCC1
Unit tag: %
Test value: 84
//
Record smiles: O=C(NCCCN1CCOCC1)c1sc2ncnc3c2c1NC(=O)N3c1ccc2c(ccn2Cc2cccc(F)c2)c1
Unit tag: %
Test value: 18

Query string: Recorded inhibition at 2 µM of "COc1cc(NC(=O)c2sc3ncnc4c3c2NC(=O)N4c2ccc(Oc3ccccc3)cc2)ccc1OCCN1CCCCC1" , please.
Result string: 40

Query string: Recorded inhibition at 2 µM of "O=C(Nc1ccc(CN2CCOCC2)cc1)c1sc2ncnc3c2c1NC(=O)N3c1ccccc1Cl" , please.
Result string: 72

Query string: Recorded inhibition at 2 µM of "COc1cc(NC(=O)c2sc3ncnc4c3c2NC(=O)N4c2ccc(Br)cc2F)ccc1OCCN1CCOCC1" , please.
Result string: 11

Query string: Recorded inhibition at 2 µM of "O=C(O)c1sc2ncnc3c2c1NC(=O)N3c1cc(OCc2cccc(F)c2)c(Cl)cc1Cl" , please.
Result string: 6
